Readings of Diameter of Inhibition Zone for the listed compounds
tested on: Salmonella typhi; assay type: cell-based
Value expressed in mm; do not type the unit.

CO[C@H]1O[C@H](COC(=O)C=Cc2ccccc2)[C@@H](O)[C@H](O)[C@@H]1O [Compound 2, Methyl 6-O-cinnamoyl-α-D-mannopyranoside] : 12.41
CCCCCCCC(=O)O[C@@H]1[C@H](OC(=O)CCCCCCC)[C@@H](OC)O[C@H](COC(=O)C=Cc2ccccc2)[C@H]1OC(=O)CCCCCCC : 10.23

Proceed to the following item.
Challenge: Give Diameter of Inhibition Zone for CO[C@H]1O[C@H](COC(=O)C=Cc2ccccc2)[C@@H](OS(=O)(=O)c2ccccc2)[C@H](OS(=O)(=O)c2ccccc2)[C@@H]1OS(=O)(=O)c1ccccc1
Response given: 9.17
